Test system: TK-10 renal
assay-protocol: NCI tumour cell line growth inhibition, 48 h
quantity-kind: TGI (µM)
Give bare numbers, in µM.

Some solved entries appear below for comparison.
O=C(CCl)NCCNc1nccc(Nc2ccc(S(=O)(=O)Nc3ccccn3)cc2)n1: 10.3
CN(C)c1ccc(/C=C/c2ccc(S(N)(=O)=O)cc2)cc1: 39.8
CC/C=C\C[C@H](F)C/C=C1/C(=O)C=C[C@@H]1C/C=C\CCCC(=O)OC: 16.2
O=C(Cc1ccccc1F)NC1=C(Cl)C(=O)c2ccccc2C1=O: 5.29
O=C1/C=C/[C@@H](O)[C@@H]2C[C@@H](O)C[C@H]2/C=C/CCC[C@H](CCc2cccc3ccccc23)O1: 0.328

Consider the additional compound presented here.
// query Entry COc1cc(C(=O)O[C@H](C(=O)NCCCNC(=O)[C@@H](OC(=O)c2cc(OC)cc3c(C)cccc23)[C@]2(C)CO2)[C@]2(C)CO2)c2cccc(C)c2c1 has what TGI?
// result 0.28

###

Test system: MDA-MB-435
assay-protocol: NCI tumour cell line growth inhibition, 48 h
quantity-kind: TGI (µM)
One number for each entry, in µM.

Some solved entries appear below for comparison.
O=C1/C=C/[C@@H](O)[C@@H]2C[C@@H](O)C[C@H]2/C=C/CCC[C@H](CCc2cccc3ccccc23)O1: 3.43
NC(=NCc1ccccc1)C(N=Nc1ccccc1)C(=O)NCc1ccccc1 (centres undefined): 25.5
COc1cc(C(=O)O[C@H](C(=O)NCCCNC(=O)[C@@H](OC(=O)c2cc(OC)cc3c(C)cccc23)[C@]2(C)CO2)[C@]2(C)CO2)c2cccc(C)c2c1: 0.503

Consider the additional compound presented here.
// query Entry CCOC(=O)/C=C(\C(=O)OCC)n1ccc(=O)n(Cc2cnnn2CCCCOC(C)=O)c1=O has what TGI?
// result 22.9

###

Test system: MALME-3M melanoma
assay-protocol: NCI tumour cell line growth inhibition, 48 h
quantity-kind: GI50

CC1(C)[C@@H]2C[C@H]1[C@@H](Cc1cccc(C[C@H]3c4cc(-c5ccccn5)ncc4[C@H]4C[C@@H]3C4(C)C)c1)c1cc(-c3ccccn3)ncc12: 1780 nM
O=C1C(Cl)=C(Nc2ccc(Nc3ccccc3)c(NC3=C(Cl)C(=O)c4ccccc4C3=O)c2)C(=O)c2ccccc21: 2500 nM

Consider the additional compound presented here.
// query Entry CN(CCCCCl)P(=O)(OCCS(=O)(=O)CC(NC(=O)CCC(N)C(=O)O)C(=O)NC(C(=O)O)c1ccccc1)OCC1OC(n2ccc(N)nc2=O)C(O)C1O (stereo not drawn) has what GI50?
// result 12600 nM

###

Test system: NCI/ADR-RES ovarian
assay-protocol: NCI tumour cell line growth inhibition, 48 h
quantity-kind: GI50

CCCCCCCCCCCCCCCC1=NCCN1: 2.16 µM
COC(=O)c1ccc2c(c1)C(=O)c1c-2n(CCCCl)c(=O)c2cc([N+](=O)[O-])ccc12: > 100 µM
CN(C)CCCN(CCC1CCCCC1)CCC1CCCCC1: 0.683 µM
CCCCCCCCCCCCCCCCCc1nccn1CCOCCO: 20.4 µg/mL

Quick request: GI50 for each listed item, please.
1. CCCCN1CCCC[C@@H]1C(=O)N[C@H](C(=O)N(C)[C@H](C[C@@H](OC(C)=O)c1nc(C(=O)NC2CCC(C(=O)OC)CC2)cs1)C(C)C)C(C)C (stereo partly drawn)
2. CC(=O)/C(=C/c1ccccc1)C(=O)CC(C)C
3. CN(CCCCCl)P(=O)(OCCS(=O)(=O)CC(NC(=O)CCC(N)C(=O)O)C(=O)NC(C(=O)O)c1ccccc1)OCC1OC(n2ccc(N)nc2=O)C(O)C1O (stereo not drawn)
4. CCCCOC(=O)c1ccc(N)cc1
5. C[C@@]1(C(=O)O)CCC[C@]2(C)C1CC[C@@]13C[C@@](O)(CC[C@]12O)[C@@]1(CO1)C3 (stereo partly drawn)

// result
1: 3.53 µM; 2: 18.2 µM; 3: 17.8 µM; 4: 92.4 µM; 5: > 100 µM

Quick request: GI50 for each listed item, please.
1. Oc1ccc(Nc2ccc3ccccc3c2)cc1
2. Cc1c(-c2ccc(C3CCCCC3)cc2)nc2ccc(F)cc2c1C(=O)O

// result
["4.4 µM", "0.609 µM"]
